From: paper PMC6039436

# test name: Biodistribution in ddY mice
# Type: in vivo
# settings: i.v. co-injection, 4 h
# Description: In this study, to minimize both the number of mice consumed in the experiment and the potential for experimental errors, we co-injected radiobrominated and radioiodinated compounds into mice[30],[31]. High radioactivity in the liver, small intestine, and large intestine was observed. […] Tissues in mice were resected and weighed. The radioactivity of the tissues was counted by a gamma counter and counts were corrected for background radiation. […]
Marks after values point to notes of the source that are not given here.
assay endpoint: Radioactivity in Spleen

>  <compound>
COCCOc1ccc2c(c1)ncn2-c1ccc2c([77Br])ccc(N3CCC(N)CC3)c2n1 [[^77Br]2]

>  <assay endpoint>
Radioactivity in Spleen

>  <reported measurement>
0.69 (0.24) %injected dose/gram tissue

$$$$
>  <compound>
COCCOc1ccc2c(c1)ncn2-c1ccc2cccc(N3CCC(NC(=O)c4cccc([77Br])c4)CC3)c2n1 [[^77Br]3]

>  <assay endpoint>
Radioactivity in Spleen

>  <reported measurement>
0.88 (0.08) %injected dose/gram tissue

$$$$

Reported Radioactivity in Spleen for COCCOc1ccc2c(c1)ncn2-c1ccc2c([125I])ccc(N3CCC(N)CC3)c2n1 [[^125I]4, reference compound] : what is it?
0.43 (0.11) %injected dose/gram tissue

###

# test name: Biodistribution in ddY mice
# Assay type: in vivo
# settings: i.v. co-injection, 24 h
Marks after values point to notes of the source that are not given here.
assay endpoint: Radioactivity in Stomach

>  <molecule>
COCCOc1ccc2c(c1)ncn2-c1ccc2cccc(N3CCC(NC(=O)c4cccc([125I])c4)CC3)c2n1 [[^125I]5, reference compound]

>  <Radioactivity in Stomach>
0.01 (0.00)^** %injected dose /organ

$$$$
>  <molecule>
COCCOc1ccc2c(c1)ncn2-c1ccc2c([77Br])ccc(N3CCC(N)CC3)c2n1 [[^77Br]2]

>  <Radioactivity in Stomach>
0.11 (0.01) %injected dose /organ

$$$$
>  <molecule>
COCCOc1ccc2c(c1)ncn2-c1ccc2cccc(N3CCC(NC(=O)c4cccc([77Br])c4)CC3)c2n1 [[^77Br]3]

>  <Radioactivity in Stomach>
0.35 (0.06) %injected dose /organ

$$$$

Okay, next one:
Looking for the measured Radioactivity in Stomach of COCCOc1ccc2c(c1)ncn2-c1ccc2c([125I])ccc(N3CCC(N)CC3)c2n1 [[^125I]4, reference compound] , can you help?
0.05 (0.00)^** %injected dose /organ

###

# test name: Biodistribution in ddY mice
# Type: in vivo
# settings: i.v. co-injection, 1 h
# Text: In this study, to minimize both the number of mice consumed in the experiment and the potential for experimental errors, we co-injected radiobrominated and radioiodinated compounds into mice[30],[31]. High radioactivity in the liver, small intestine, and large intestine was observed. […] Tissues in mice were resected and weighed. The radioactivity of the tissues was counted by a gamma counter and counts were corrected for background radiation. […]
Marks after values point to notes of the source that are not given here.
assay endpoint: Radioactivity in Pancreas

Examples with their reported Radioactivity in Pancreas follow.
>  <molecule>
COCCOc1ccc2c(c1)ncn2-c1ccc2c([77Br])ccc(N3CCC(N)CC3)c2n1 [[^77Br]2]

>  <Radioactivity in Pancreas>
2.98 (0.75) %injected dose/gram tissue

$$$$
>  <molecule>
COCCOc1ccc2c(c1)ncn2-c1ccc2cccc(N3CCC(NC(=O)c4cccc([77Br])c4)CC3)c2n1 [[^77Br]3]

>  <Radioactivity in Pancreas>
1.24 (0.16) %injected dose/gram tissue

$$$$

Consider the record given below.
I'd like to know its Radioactivity in Pancreas. The molecule in question is COCCOc1ccc2c(c1)ncn2-c1ccc2c([125I])ccc(N3CCC(N)CC3)c2n1 [[^125I]4, reference compound]
2.49 (0.63) %injected dose/gram tissue
